Every entry's value here was drawn from paper PMC7072624.

Target: peroxisome proliferator-activated receptor γ (PPARγ) (Homo sapiens)
Construct: gene PPARG
Sequence (P37231 223-505): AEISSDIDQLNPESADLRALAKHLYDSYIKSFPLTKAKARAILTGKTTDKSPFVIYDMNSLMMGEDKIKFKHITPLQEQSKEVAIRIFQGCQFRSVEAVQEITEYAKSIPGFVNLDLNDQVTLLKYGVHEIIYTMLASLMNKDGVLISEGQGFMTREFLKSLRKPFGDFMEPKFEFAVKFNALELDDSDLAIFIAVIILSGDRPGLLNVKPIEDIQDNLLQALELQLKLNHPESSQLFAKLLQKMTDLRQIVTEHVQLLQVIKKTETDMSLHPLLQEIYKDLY
Assay: ([…] Å); competitive TR-FRET binding assay
Measurement kind: Ki (nM)
Quick reminder: number only, in nM, skip the unit.

The observed Ki for COC(=O)[C@]1(Cc2ccc(O)c(CC=C(C)C)c2)OC(=O)C(O)=C1c1ccc(O)cc1 when tested with peroxisome proliferator-activated receptor γ (PPARγ) (Homo sapiens) stands at 2640
